Data origin: a melting point compilation (Tetko et al.; mined from patent text by program, amines drawn as free bases though some values may be those of a salt)

molecule	melting point
O=C(O)Cc1cc(Cl)c(Cl)cc1[N+](=O)[O-]	119 to 120 °C
COCCN(C)C1=N/C(=C\c2c[nH]c3ncc(Cl)cc23)C(=O)N1	281 °C
COc1ccnc(CSc2nc3cc(OC(F)(F)C(F)F)ccc3[nH]2)c1OC	98 to 102 °C
CCOc1nn(Cc2ccnc(OCc3nc(-c4ccccc4)oc3C)c2)cc1CCC(=O)O	114 to 115 °C
COC(=O)c1cc(CC#N)cc(Cc2nc3c(F)c(F)cc(F)c3s2)c1	130 to 132 °C
Cc1c(C(=O)NCC(N)=O)cccc1-c1cccc2cc(Cc3cccc(C(F)(F)F)c3)sc12	124 to 125 °C
C[C@@H]1CN(c2cc3c(c(N)c2F)c(=O)c(C(=O)O)cn3C2CC2)C[C@H](C)N1	253 to 254 °C
CN(C)C(=O)N1CCC(Nc2ncc3ncnc(Nc4ccc(F)c(Cl)c4)c3n2)CC1	187 to 188 °C
Cn1cc(-c2cccc(I)c2)c(=O)c(-c2cccc(C(F)(F)F)c2)c1	178 to 181 °C
Nc1nc2c(ncn2C2CC(CO)C(O)C2F)c(=O)[nH]1 (stereo unspecified)	266 to 269 °C
Oc1cccc2c1C=CC=CN2	132 to 136 °C
Fc1cccc2[nH]cc(C3CCC4(CC3)OCCO4)c12	161 to 162 °C
NSc1nc(-c2ccccc2Cl)ns1	143 to 145 °C
Cc1c(-c2ccnc(-c3ccc4c(n3)CCCC4)n2)ccc2ccccc12	156 to 158 °C
CCN(CC)C(=O)CCC(=O)c1cccc(C)c1N	104 °C
CC(=O)Nc1cnc2cccc(Oc3cc(-c4ccc(C(F)(F)F)cc4)ncn3)c2n1	237 °C
COc1ccc(C(CI)(OC)OC)cc1	54 to 55 °C
CN1CCC(OC(c2cccc(C#CCN)c2)c2nc3ccccc3[nH]2)CC1 (stereo unspecified)	101 °C
CS(=O)(=O)Nc1ccc(Cn2ncc(Cl)c(Cl)c2=O)cc1	152 to 154 °C
CCCCNC(=O)NS(=O)(=O)Cc1c(C(=O)OC)cccc1[N+](=O)[O-]	144 to 150 °C
CN=C(NC#N)NCCSCc1ccco1	78 to 82 °C
